Experiment: amyloid nucleation score (Sup35N fusion, yeast selection) (log enrichment); library NNK3; higher = more nucleation; inactive = no reads after selection;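 note: zero at mode of non-aggregating sequences after 7 days selection at 30°C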

SUBSTANCE: MFFAGKTPGHVHVWNSANTR
amyloid nucleation score: inactive
//
SUBSTANCE: YNDKGTV
amyloid nucleation score: inactive
//
SUBSTANCE: DLGHQMVVRRHVLFLICCCN
amyloid nucleation score: inactive
//
SUBSTANCE: INPRSYADLYYIRFNHWWLL
amyloid nucleation score: inactive
//
SUBSTANCE: ICDHVYVGNFLTQA
amyloid nucleation score: inactive
//
SUBSTANCE: PGSFNLILVTYIGLLQKLLH
amyloid nucleation score: 0.993
//
SUBSTANCE: KSLTAYSLFVASYLSSFEWG
amyloid nucleation score: inactive
//
SUBSTANCE: IRTNAGSLYFYWGTLFRISH
amyloid nucleation score: inactive
//
SUBSTANCE: RMKGFEFCCWDQ
amyloid nucleation score: -0.31
//
SUBSTANCE: QNGCRLMTCC
amyloid nucleation score: inactive
//
SUBSTANCE: INKSWGVFP
amyloid nucleation score: 0.687
//
SUBSTANCE: SLCRSLGLGLLAPYRFFTWR
amyloid nucleation score: inactive
//
SUBSTANCE: ANGLAGDYE
amyloid nucleation score: -0.578
//
SUBSTANCE: MEINGALRYMH
amyloid nucleation score: inactive
//
SUBSTANCE: QNVGIVYRTST
amyloid nucleation score: -0.928
//
SUBSTANCE: KTRERGLSTGDGTQNEIAGY
amyloid nucleation score: -0.123
//
SUBSTANCE: VLRRSYYRVSRPELPIWSN
amyloid nucleation score: -0.153
//
SUBSTANCE: PVVQCNLFFVMVYTLGIRCV
amyloid nucleation score: -0.579
//
SUBSTANCE: NEHGEAGCAYEAKGAVGVKS
amyloid nucleation score: inactive
//
SUBSTANCE: YMMGKISSPGNLMTMFAVDG
amyloid nucleation score: inactive
//
SUBSTANCE: CNAYLAYARYIYTHGWPRSL
amyloid nucleation score: inactive
//
SUBSTANCE: ICTPENT
amyloid nucleation score: -0.303
//
SUBSTANCE: SLGVEVKCNTIP
amyloid nucleation score: inactive
//
SUBSTANCE: LTGFIGICQLVSYFNEVALQ
amyloid nucleation score: inactive
//
SUBSTANCE: NDFSKGLCMWTFNWNDTYDQ
amyloid nucleation score: 1.75
//
SUBSTANCE: SAIRMPAYDYTWRGLYGDKK
amyloid nucleation score: inactive
//
SUBSTANCE: RDCCYLTFALVPSHGLLKVK
amyloid nucleation score: inactive
//
SUBSTANCE: QGAMVD
amyloid nucleation score: inactive
//
SUBSTANCE: LPLPFFQRVNNGKSVLGVHL
amyloid nucleation score: inactive
//
SUBSTANCE: TDETSGRSLGVVWEHHAMNH
amyloid nucleation score: inactive
